- assayNotes: Aqueous solubility of compound at pH 7.4
- Type: physicochemical
- conditionsUsed: buffer
Listed here: items and their measured solubility.
recordedMetric: solubility (µM)

- CCCCCCCCn1c2c([n+](CCCC)c1C)C(=O)c1ccccc1C2=O.[Br-]: 118
- CCCCn1c2c([n+](C3CCC4(CCCCC4)CC3)c1C)C(=O)c1ccccc1C2=O.[Br-]: 118

---

- assayNotes: Selectivity index, ratio of IC50 for African green monkey Vero cells to MIC50 for Mycobacterium tuberculosis H37Rv ATCC 27294
- Assay type: toxicity
- conditionsUsed: read-out: Selectivity Index
T if selectivity ratio is below 30. F if not; exact matches included in F.

- CCCCCCCCn1c2c([n+](CCCC)c1C)C(=O)c1ccccc1C2=O.[Br-]: T
- CCCCCCCCn1c2c([n+](C3CCC4(CCCCC4)CC3)c1C)C(=O)c1ccccc1C2=O: T
- CCCCCCn1c2c([n+](CCCCCC)c1C)C(=O)c1ccccc1C2=O: T
- CCCCCCn1c2c([n+](C3CCC4(CCCCC4)CC3)c1C)C(=O)c1ccccc1C2=O: T
- CCCCCCCn1c2c([n+](CCCCC)c1C)C(=O)c1ccccc1C2=O.[Br-]: T
- CCCCn1c2c([n+](C3CCC4(CCCCC4)CC3)c1C)C(=O)c1ccccc1C2=O.[Br-]: F

---

- Test system: Mycobacterium tuberculosis
- Format: functional
- conditionsUsed: H37Rv ATCC 27294, 168 h, time 7 day
recordedMetric: MIC90

- CCCCCC[n+]1c2c(n(CC(C)C)c1C)C(=O)c1ccccc1C2=O: 6 µM
- CC(C)/N=c1\cc2n(-c3ccc(Cl)cc3)c3ccccc3nc-2cc1Nc1ccc(Cl)cc1 [CLOFAZIMINE]: 0.8 µM
- CCCCCCn1c2c([n+](C3CCC4(CCCCC4)CC3)c1C)C(=O)c1ccccc1C2=O: 0.4 µM
- CCCCCCCCn1c2c([n+](C3CCC4(CCCCC4)CC3)c1C)C(=O)c1ccccc1C2=O: 0.4 µM
- CCCCCCCC[n+]1c2c(n(CC(C)C)c1C)C(=O)c1ccccc1C2=O: 3 µM
- CCCCCCCCn1c2c([n+](CCCC)c1C)C(=O)c1ccccc1C2=O.[Br-]: 1.5 µM
- NNC(=O)c1ccncc1 [ISONIAZID]: 3.2 µM
- CCCCCCCn1c2c([n+](CCCCC)c1C)C(=O)c1ccccc1C2=O.[Br-]: 1.2 µM
- CCCCn1c2c([n+](C3CCC4(CCCCC4)CC3)c1C)C(=O)c1ccccc1C2=O.[Br-]: 0.53 µM
- CCCCCCn1c2c([n+](CCCCCC)c1C)C(=O)c1ccccc1C2=O: 1.5 µM

---

Listed here: items and their measured half-life.
- assayNotes: Metabolic stability in rat microsomes assessed as half life preincubated for 5 mins followed by NADPH addition and measured upto 45 mins by LC-MS/MS analysis
- Assay type: ADME, Microsome
- conditionsUsed: time <=50 min
recordedMetric: half-life (min)

- CCCCn1c2c([n+](C3CCC4(CCCCC4)CC3)c1C)C(=O)c1ccccc1C2=O.[Br-]: 20
- CCCCCCCCn1c2c([n+](CCCC)c1C)C(=O)c1ccccc1C2=O.[Br-]: 20

---

- assayNotes: Half life in Swiss albino mouse at 50 mg/kg, po or 1 mg/kg, iv measured upto 24 hrs by HPLC-LCMS analysis
- Format: ADME, organism-based
- conditionsUsed: in vivo
recordedMetric: half-life (h)

• CCCCCCCCn1c2c([n+](CCCC)c1C)C(=O)c1ccccc1C2=O.[Br-] = 7
• CCCCn1c2c([n+](C3CCC4(CCCCC4)CC3)c1C)C(=O)c1ccccc1C2=O.[Br-] = 7

---

- Test system: Mycobacterium tuberculosis
- Assay type: functional
- conditionsUsed: H37Rv ATCC 27294, 168 h, time 7 day, read-out: MBC99.9
recordedMetric: MBC (µM)

• CCCCCCCCn1c2c([n+](C3CCC4(CCCCC4)CC3)c1C)C(=O)c1ccccc1C2=O = 1.2
• CCCCCCCCn1c2c([n+](CCCC)c1C)C(=O)c1ccccc1C2=O.[Br-] = 6.3
• CCCCCCCn1c2c([n+](CCCCC)c1C)C(=O)c1ccccc1C2=O.[Br-] = 6.3
• CCCCCCn1c2c([n+](CCCCCC)c1C)C(=O)c1ccccc1C2=O = 6.3
• CCCCCCn1c2c([n+](C3CCC4(CCCCC4)CC3)c1C)C(=O)c1ccccc1C2=O = 1.6
• CCCCn1c2c([n+](C3CCC4(CCCCC4)CC3)c1C)C(=O)c1ccccc1C2=O.[Br-] = 1.6

---

- Test system: Mycobacterium tuberculosis
- Type: functional
- conditionsUsed: H37Rv ATCC 27294, 168 h, time 7 day
recordedMetric: log10(MIC50) (log10 of the value in µM)

• CCCCCCCC[n+]1c2c(n(CC(C)C)c1C)C(=O)c1ccccc1C2=O = 0.30
• CCCCCCCn1c2c([n+](CCCCC)c1C)C(=O)c1ccccc1C2=O.[Br-] = -0.11
• CCCCCC[n+]1c2c(n(CC(C)C)c1C)C(=O)c1ccccc1C2=O = 0.60
• NNC(=O)c1ccncc1 [ISONIAZID] = 0.20
• CCCCCCCCn1c2c([n+](C3CCC4(CCCCC4)CC3)c1C)C(=O)c1ccccc1C2=O = -0.52
• CCCCn1c2c([n+](C3CCC4(CCCCC4)CC3)c1C)C(=O)c1ccccc1C2=O.[Br-] = -0.55
• CCCCCCn1c2c([n+](C3CCC4(CCCCC4)CC3)c1C)C(=O)c1ccccc1C2=O = -0.52
• CCCCCCn1c2c([n+](CCCCCC)c1C)C(=O)c1ccccc1C2=O = -0.17
• CCCCCCCCn1c2c([n+](CCCC)c1C)C(=O)c1ccccc1C2=O.[Br-] = -0.09
• CC(C)/N=c1\cc2n(-c3ccc(Cl)cc3)c3ccccc3nc-2cc1Nc1ccc(Cl)cc1 [CLOFAZIMINE] = -0.70

---

- assayNotes: Volume of distribution in Swiss albino mouse at 50 mg/kg, po or 1 mg/kg, iv measured upto 24 hrs by HPLC-LCMS analysis
- Type: ADME, organism-based
- conditionsUsed: in vivo
recordedMetric: Vd (L/kg)

- CCCCn1c2c([n+](C3CCC4(CCCCC4)CC3)c1C)C(=O)c1ccccc1C2=O.[Br-]: 27
- CCCCCCCCn1c2c([n+](CCCC)c1C)C(=O)c1ccccc1C2=O.[Br-]: 27
